# TESTED_SYSTEM: CRBN-DDB1 (CRBN_DDB1.7) (Homo sapiens, UniProt Q96SW2)
# Sequence (Q96SW2 81-442 limits assumed): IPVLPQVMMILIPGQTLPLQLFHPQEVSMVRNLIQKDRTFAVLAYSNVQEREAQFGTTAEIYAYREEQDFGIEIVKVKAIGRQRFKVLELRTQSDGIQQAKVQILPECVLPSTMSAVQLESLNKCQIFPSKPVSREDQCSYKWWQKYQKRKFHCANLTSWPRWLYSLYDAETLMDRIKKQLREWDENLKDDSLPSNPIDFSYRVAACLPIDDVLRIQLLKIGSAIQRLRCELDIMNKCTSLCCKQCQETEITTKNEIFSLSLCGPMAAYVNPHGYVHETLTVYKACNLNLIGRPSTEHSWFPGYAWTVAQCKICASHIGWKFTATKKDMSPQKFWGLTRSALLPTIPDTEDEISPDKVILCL
# ASSAY_NOTES: Fluorescence polarization (FP) binding assay, CRBN_DDB1.7 construct
# PROTOCOL_CONDITIONS: 0.05% PA, 0.1% BSA; indoline binders; read-out: FP CRBN_DDB1.7 0.05% PA, 0.1% BSA ka nM
READOUT_TYPE: Kd

In the examples that follow, each entry is paired with its recorded Kd.
| COMPOUND | RESULT |
| --- | --- |
| CN(C(=O)OC(C)(C)C)C1CCN(c2c(F)ccc3c2CCN3[C@@H]2CCC(=O)NC2=O)CC1 (single isomer, unassigned) | < 100000 nM |
| CC(C)(C)OC(=O)N1CCC(c2c(F)cc3c(c2F)CCN3[C@@H]2CCC(=O)NC2=O)CC1 (single isomer, unassigned) | < 100000 nM |
| CC(C)(C)OC(=O)N1CCC(c2ccc3c(c2F)CCN3[C@H]2CCC(=O)NC2=O)CC1 (single isomer, unassigned) | < 100000 nM |
| CC(C)(C)OC(=O)N1CCC(c2c(F)ccc3c2CCN3[C@H]2CCC(=O)NC2=O)CC1 (single isomer, unassigned) | < 100000 nM |
| CN(C(=O)OC(C)(C)C)[C@H]1CC[C@@H](c2c(F)ccc3c2CCN3C2CCC(=O)NC2=O)CC1 (single isomer, unassigned) | < 100000 nM |

Q: Please report the recorded Kd for CC(C)(C)OC(=O)N1CCC(c2c(F)ccc3c2CCN3[C@@H]2CCC(=O)NC2=O)CC1 (single isomer, unassigned) .
Ans: < 100000 nM

Q: Please report the recorded Kd for O=C1CC[C@@H](N2CCc3c(N4CCC(O)CC4)cccc32)C(=O)N1 (single isomer, unassigned) .
Ans: < 1000 nM

Q: Please report the recorded Kd for CC(C)(C)OC(=O)N1CCC(c2c(F)cc3c(c2F)CCN3[C@H]2CCC(=O)NC2=O)CC1 (single isomer, unassigned) .
Ans: < 100000 nM

Q: Please report the recorded Kd for O=C1CC[C@@H](N2CCc3c(N4CCC5(CC4)OCCO5)cccc32)C(=O)N1 (single isomer, unassigned) .
Ans: < 1000 nM

Q: Please report the recorded Kd for O=C1CC[C@@H](N2CCc3c(N4CCC(CCO)CC4)cccc32)C(=O)N1 (single isomer, unassigned) .
Ans: < 1000 nM

Q: Please report the recorded Kd for O=C1CC[C@H](N2CCc3c(N4CCC5(CC4)OCCO5)cccc32)C(=O)N1 (single isomer, unassigned) .
Ans: < 100000 nM

Q: Please report the recorded Kd for CN(C(=O)OC(C)(C)C)[C@H]1CC[C@H](c2c(F)ccc3c2CCN3C2CCC(=O)NC2=O)CC1 (single isomer, unassigned) .
Ans: < 100000 nM

---

# TESTED_SYSTEM: CRBN-DDB1 (CRBN_DDB1.3) (Homo sapiens, UniProt Q96SW2)
# Sequence (Q96SW2 318-426 limits assumed): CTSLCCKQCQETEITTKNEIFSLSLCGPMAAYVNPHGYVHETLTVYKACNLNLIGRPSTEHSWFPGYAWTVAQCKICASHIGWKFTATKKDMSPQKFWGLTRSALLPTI
# ASSAY_NOTES: Fluorescence polarization (FP) binding assay, CRBN_DDB1.3 construct
# PROTOCOL_CONDITIONS: 0.05% PA (no BSA); benzomorpholine binders; read-out: FP CRBN_DDB1.3 0.05% PA Ka
Readings of Kd for the listed compounds

| COMPOUND | Kd |
| --- | --- |
| CC(C)(C)OC(=O)N1CCC(c2cccc3c2OCCN3C2CCC(=O)NC2=O)CC1 (centres unmarked) | ≤ 100 µM |

Q: Please tell me: Kd of O=C1CCC(N2CCOc3c(C4CCNCC4)cccc32)C(=O)N1 (centres unmarked) , system CRBN-DDB1 (CRBN_DDB1.3) (Homo sapiens, UniProt Q96SW2)?
Ans: ≤ 100 µM
